# Experimental target: c-Met kinase domain recombinant protein (Homo sapiens)
# Construct: 50 μL diluted solution of c-Met kinase domain recombinant protein in reaction buffer was added to initiate the reaction
# Sequence (P08581 1078-1345 limits assumed): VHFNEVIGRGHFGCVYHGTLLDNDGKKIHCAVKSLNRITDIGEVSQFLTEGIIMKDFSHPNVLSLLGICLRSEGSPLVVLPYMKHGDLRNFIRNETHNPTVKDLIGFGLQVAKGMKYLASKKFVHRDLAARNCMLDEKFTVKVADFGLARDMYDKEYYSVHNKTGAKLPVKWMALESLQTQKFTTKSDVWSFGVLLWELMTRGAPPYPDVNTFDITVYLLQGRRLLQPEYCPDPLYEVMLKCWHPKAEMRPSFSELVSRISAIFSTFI
# Assay: biochemical
# Measurement parameters: read-out: Inhibition rate at 10 μM (%)
# Method: Enzymatic reaction substrate Poly(Glu,Tyr)4:1 was diluted to 20 μg/mL in potassium ion free PBS (10 mM sodium phosphate buffer, 150 mM NaCl, pH7.2-7.4), microplate was coated with this solution at 125 μL per well, and reacted at 37° C. for 12-16 hours. […] Reaction was terminated by adding 50 μL per well of 2M H2SO4, the plate was read at 490 nm using a VERSAmax microplate reader with tunable wavelength. Inhibition rate of the sample was calculated using the following equation: […]
Measurement kind: inhibition at 10 µM (%)

INSERT INTO measurements (chemical_structure, experimental_target, measurement_kind, numeric_value) VALUES
  ('COc1ccc(S(=O)(=O)n2ncc3ncc(-c4cnn(C)c4)cc32)cc1', 'c-Met kinase domain recombinant protein (Homo sapiens)', 'inhibition at 10 µM', 49.9),
  ('Cn1cc(-c2cnc3cnn(S(=O)(=O)c4cnc5ccccn45)c3c2)cn1', 'c-Met kinase domain recombinant protein (Homo sapiens)', 'inhibition at 10 µM', 59.3),
  ('Cn1cc(-c2cnc3cnn(S(=O)(=O)c4cnc5ccc(C(F)(F)F)cn45)c3c2)cn1', 'c-Met kinase domain recombinant protein (Homo sapiens)', 'inhibition at 10 µM', 65.2);
